Target entity: DNA topoisomerase II (Homo sapiens, UniProt P11388+Q02880)
Run description: Inhibition of topoisomerase 2 in human CNE1 cells assessed as reduction in cell growth measured after 72 hrs by MTT assay
Type: cell-based
Measured metric: IC50 (µM)
Express it in µM; write the number only.

Form: molecule = COc1ccc(C(O)c2cc(O)c3c(c2O)C(=O)c2ccccc2C3=O)cc1Br (stereo not drawn) ; IC50 = 16.7

Form: molecule = O=C1c2ccccc2C(=O)c2c(O)c(C(c3ccsc3)N(CCCl)CCCl)cc(O)c21 (stereo not drawn) ; IC50 = 23.1

----------
Target entity: DNA topoisomerase II (Homo sapiens, UniProt P11388+Q02880)
Run description: Inhibition of topoisomerase 2 in human MCF7 cells assessed as reduction in cell growth measured after 72 hrs by MTT assay
Type: cell-based
Measured metric: IC50 (µM)
Express it in µM; write the number only.

Form: compound = O=C1c2ccccc2C(=O)c2c(O)c(C(O)c3ccc(Br)s3)cc(O)c21 (stereo unspecified) ; IC50 = 39.4

Form: compound = O=C1c2ccccc2C(=O)c2c(O)c(C(O)c3ccc(Cl)s3)cc(O)c21 (stereo unspecified) ; IC50 = 29.3

Form: compound = O=C1c2ccccc2C(=O)c2c(O)c(C(c3ccsc3)N(CCCl)CCCl)cc(O)c21 (stereo unspecified) ; IC50 = 22.5

Form: compound = O=C1c2ccccc2C(=O)c2c(O)c(C(O)c3ccc(OC(F)(F)F)cc3)cc(O)c21 (stereo unspecified) ; IC50 = 30.5

Form: compound = O=C1c2ccccc2C(=O)c2c(O)c(C(O)c3ccc(Cl)cc3Cl)cc(O)c21 (stereo unspecified) ; IC50 = 28.4

Form: compound = N#Cc1ccc(C(O)c2cc(O)c3c(c2O)C(=O)c2ccccc2C3=O)cc1 (stereo unspecified) ; IC50 = 28.6

Form: compound = O=C1c2ccccc2C(=O)c2c(O)c(C(c3ccc(OC(F)(F)F)cc3)N(CCCl)CCCl)cc(O)c21 (stereo unspecified) ; IC50 = 42.8

Form: compound = CSc1ccc(C(c2cc(O)c3c(c2O)C(=O)c2ccccc2C3=O)N(CCCl)CCCl)cc1 (stereo unspecified) ; IC50 = 39.3

Form: compound = O=C1c2ccccc2C(=O)c2c(O)c(C(O)c3ccc(C(F)(F)F)cc3)cc(O)c21 (stereo unspecified) ; IC50 = 27.4

Form: compound = COc1ccc(C(O)c2cc(O)c3c(c2O)C(=O)c2ccccc2C3=O)cc1Br (stereo unspecified) ; IC50 = 45.6

Form: compound = CC(C)=CC[C@@H](O)C1=CC(=O)c2c(O)ccc(O)c2C1=O [SHIKONIN] ; IC50 = 5.7

Form: compound = COc1cccc2c1C(=O)c1c(O)c3c(c(O)c1C2=O)C[C@@](O)(C(=O)CO)C[C@@H]3O[C@H]1C[C@H](N)[C@H](O)[C@H](C)O1 [DOXORUBICIN] ; IC50 = 1.5

Form: compound = O=C1c2ccccc2C(=O)c2c(O)c(C(O)c3cc(Br)cs3)cc(O)c21 (stereo unspecified) ; IC50 = 17.5

----------
Give measured IC50 for each item. Keep answers brief.
Target entity: DNA topoisomerase II (Homo sapiens, UniProt P11388+Q02880)
Run description: Inhibition of topoisomerase 2 in human HeLa cells assessed as reduction in cell growth measured after 72 hrs by MTT assay
Format: cell-based
Express it in µM; write the number only.

Form: compound = O=C1c2ccccc2C(=O)c2c(O)c(C(c3ccsc3)N(CCCl)CCCl)cc(O)c21 (stereo unspecified) ; IC50 = 19.3

Form: compound = CC(C)=CC[C@@H](O)C1=CC(=O)c2c(O)ccc(O)c2C1=O ; IC50 = 6.7

Form: compound = COc1cccc2c1C(=O)c1c(O)c3c(c(O)c1C2=O)C[C@@](O)(C(=O)CO)C[C@@H]3O[C@H]1C[C@H](N)[C@H](O)[C@H](C)O1 ; IC50 = 3.3

Form: compound = O=C1c2ccccc2C(=O)c2c(O)c(C(O)c3ccc(Br)s3)cc(O)c21 (stereo unspecified) ; IC50 = 48.1

Form: compound = O=C1c2ccccc2C(=O)c2c(O)c(C(O)c3cccs3)cc(O)c21 (stereo unspecified) ; IC50 = 36.2

Form: compound = O=C1c2ccccc2C(=O)c2c(O)c(C(O)c3ccc(Cl)cc3Cl)cc(O)c21 (stereo unspecified) ; IC50 = 18.9

Form: compound = Cc1ccc(C(O)c2cc(O)c3c(c2O)C(=O)c2ccccc2C3=O)s1 (stereo unspecified) ; IC50 = 42.3

Form: compound = COc1ccc(C(O)c2cc(O)c3c(c2O)C(=O)c2ccccc2C3=O)cc1Br (stereo unspecified) ; IC50 = 29.8

Form: compound = N#Cc1ccc(C(O)c2cc(O)c3c(c2O)C(=O)c2ccccc2C3=O)cc1 (stereo unspecified) ; IC50 = 14.9

Form: compound = O=C1c2ccccc2C(=O)c2c(O)c(C(O)c3cc(Br)cs3)cc(O)c21 (stereo unspecified) ; IC50 = 18.4

Form: compound = O=C1c2ccccc2C(=O)c2c(O)c(C(O)c3ccc(C(F)(F)F)cc3)cc(O)c21 (stereo unspecified) ; IC50 = 20.7

Form: compound = O=C1c2ccccc2C(=O)c2c(O)c(C(O)c3ccc(Cl)s3)cc(O)c21 (stereo unspecified) ; IC50 = 21.2

Form: compound = O=C1c2ccccc2C(=O)c2c(O)c(C(O)c3ccc(OC(F)(F)F)cc3)cc(O)c21 (stereo unspecified) ; IC50 = 32
